// Fold Weaker Affinity from FA lookup, one value per entry
target: human FRs (KB cells) (Homo sapiens, UniProt P15328); construct: endogenous in cells; host or cells: KB cells; test: Cell-Based Relative Affinity Assay (competition with 3H-FA on adherent KB cells); assay type: binding; conditions: Table 1; 37° C., 10% serum
Sequence (P15328 25-234): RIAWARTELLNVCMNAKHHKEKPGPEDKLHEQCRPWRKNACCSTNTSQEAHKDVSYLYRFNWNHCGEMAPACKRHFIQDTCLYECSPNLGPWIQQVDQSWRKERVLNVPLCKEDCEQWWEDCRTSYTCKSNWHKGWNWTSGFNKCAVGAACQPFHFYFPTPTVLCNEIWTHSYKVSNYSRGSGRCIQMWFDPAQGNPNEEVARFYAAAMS
Reply with just the number.

As a guide, the following entries are already answered.
* Nc1nc2ncc(CNc3ccc(C(=O)O)cc3)nc2c(=O)[nH]1 | 91
* Nc1nc2c(c(=O)[nH]1)N(C=O)C(CNc1ccc(C(=O)N[C@@H](CCC(=O)O)C(=O)O)cc1)CN2 (stereo partly drawn) [5-formyl-tetrahydrofolate, 5-formyltetrahydrofolate] | 125

Ask | Which value of Fold Weaker Affinity from FA has been reported for CN1c2c(nc(N)[nH]c2=O)NCC1CNc1ccc(C(=O)N[C@@H](CCC(=O)O)C(=O)O)cc1 (stereo partly drawn) [5-methyl-tetrahydrofolate, 5-methyltetrahydrofolate] in the records?
Reply | 14
